# Tested on: E. coli TESEC Alr+ wild-type control
# Experimental protocol: growth (OD600 after 10 h); higher = more growth (less inhibition)
# Condition info: compound 0.1 mM; raw OD600 reference: median of DMSO wells 0.49, cell-free background 0.052
Counter-ions that a name gives are not always drawn.
Quick list: growth per entry.
Experimental endpoint: growth

Compound	Tested on	Measured result
NC[C@@H]1O[C@@H](O[C@H]2[C@H](O)[C@@H](O[C@H]3O[C@H](CO)[C@@H](O)[C@H](N)[C@H]3O)[C@H](N)C[C@@H]2N)[C@@H](O)[C@H](O)[C@H]1O [Kanamycin A sulfate]	E. coli TESEC Alr+ wild-type control	0.495
CC(=O)OCC(=O)[C@@]1(OC(C)=O)[C@@H](C)C[C@H]2[C@@H]3C[C@H](F)C4=CC(=O)C=C[C@]4(C)[C@@]3(F)[C@@H](O)C[C@@]21C [Diflorasone Diacetate]	E. coli TESEC Alr+ wild-type control	0.398
CN(Cc1ccc(C(C)(C)C)cc1)Cc1cccc2ccccc12 [Butenafine Hydrochloride]	E. coli TESEC Alr+ wild-type control	0.399
CCN(CCCc1ccccc1)CCCc1ccccc1 [Alverine citrate salt]	E. coli TESEC Alr+ wild-type control	0.48
NCc1ccc(S(N)(=O)=O)cc1 [Mafenide hydrochloride]	E. coli TESEC Alr+ wild-type control	0.418
O=c1[nH]c(=O)n([C@H]2C[C@H](O)[C@@H](CO)O2)cc1F [Floxuridine]	E. coli TESEC Alr+ wild-type control	0.356
Cc1ccc(C(=O)c2cc(O)c(O)c([N+](=O)[O-])c2)cc1 [Tolcapone]	E. coli TESEC Alr+ wild-type control	0.065

====

# Tested on: E. coli TESEC Mtb Alr
# Experimental protocol: growth (OD600 after 10 h); higher = more growth (less inhibition)
# Condition info: arabinose 100000 nM; compound 0.1 mM; raw OD600 reference: median of DMSO wells 0.201, cell-free background 0.041
Where a name gives a salt, the structure may show the parent alone.
Experimental endpoint: growth

> print(dat)
                                    compound  measured.result
 1              CC(C)(C(=O)c1cccnc1)c1cccnc1            0.198
 2                   CCCCOc1ccc(CC(=O)NO)cc1            0.202
 3  C=CCOC(Cn1ccnc1)c1ccc(Cl)cc1Cl (stereo unspecified)           0.0459
 4  CCCCC(CC)CNC(=N)NC(=N)NCCCCCCNC(=N)NC(=N)NCC(CC)CCCC (stereo unspecified) [Alexidine dihydrochloride]           0.0842
 5  Cc1cc(C(C)(C)C)c(O)c(C)c1CC1=NCCN1 [Oxymetazoline hydrochloride]            0.196
 6         COc1cc(NS(=O)(=O)c2ccc(N)cc2)ncn1              0.2
 7  N=C(N)NCC1COC2(CCCCC2)O1 (stereo unspecified) [Guanadrel sulfate]            0.204
 8                CS(=O)(=O)OCCCCOS(C)(=O)=O            0.233
 9  Cc1cc(CC(=O)O)n(C)c1C(=O)c1ccc(Cl)cc1 [Zomepirac sodium salt]             0.16
10   CSc1nc2cc(Cl)c(Oc3cccc(Cl)c3Cl)cc2[nH]1           0.0447
11  Clc1ccc(COC(Cn2ccnc2)c2ccc(Cl)cc2Cl)cc1 (stereo unspecified) [Econazole nitrate]           0.0544
